# procedureDetails: NOD1 signaling inhibitors, primary screen, cell-based, luminescence, uHTS (AID 1578);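 further: HEK-293T reporter cells stimulated with the NOD1 agonist gamma-tri-DAP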
# testContext: NOD1-driven NF-kB luciferase reporter cells, at 4 µM, active compounds read high
Among all 290,000 compounds or so, about 3,000 (1%) were called active. This is one part of a sample in which actives are shown more often than they occur.
Each record's class is read off its inhibition using these ranges: low bracket = under -30%, middle bracket = from -30% up to 20%, high bracket = 20% and over

[
  {
    "compound": "O=C(O)c1cccc(C(=O)c2cccc(C(=O)O)c2)c1",
    "discreteLabel": "middle bracket"
  },
  {
    "compound": "O=C(Nc1ccccc1)C1C2CCC3C(CCC21)C3(Cl)Cl (centres undefined)",
    "discreteLabel": "low bracket"
  },
  {
    "compound": "COc1ccc(CCNC(=O)c2oc3ccc(OC)cc3c2C)cc1",
    "discreteLabel": "middle bracket"
  },
  {
    "compound": "COc1cccc(CC(=O)n2nc(N)c3cc4ccc(OC)cc4nc32)c1",
    "discreteLabel": "middle bracket"
  },
  {
    "compound": "O=C(CCl)N1c2ccccc2CCc2ccccc21",
    "discreteLabel": "high bracket"
  },
  {
    "compound": "O=C(Nc1cccc(Cl)c1)C1C2CCC3C(CCC21)C3(Cl)Cl (centres undefined)",
    "discreteLabel": "high bracket"
  },
  {
    "compound": "CCOC(=O)C1CCN(CCC(=O)Nc2ccc(C)cc2)CC1",
    "discreteLabel": "low bracket"
  },
  {
    "compound": "COc1cccc2c1OC1(C)CC2NC(=O)N1c1cccc(C(=O)N2CCN(c3ccccn3)CC2)c1 (centres undefined)",
    "discreteLabel": "middle bracket"
  }
]

// data source = PubChem BioAssay AID1578
